Origin of the recorded values: PubChem BioAssay AID1996

# RUN CONDITIONS: buffer; pH 7.4; 200.0 µM
Label YES when solubility kinetic is at or above 8 µg/mL; otherwise label NO.

[[record]]
molecule = "CCN(C(=O)COC(=O)c1ccc(Cl)cc1N)C1CCCCC1"
label = "NO"

[[record]]
molecule = "O=C(c1ccc(Oc2ccc([N+](=O)[O-])cc2)cc1)N1CCCCCC1"
label = "YES"

[[record]]
molecule = "COC(=O)c1ccsc1NC(=O)CN1CCN(c2ncccn2)CC1"
label = "NO"

[[record]]
molecule = "COC(=O)/C(=C\\C(=O)c1ccccc1)Nc1ccc(OC)cc1"
label = "NO"

[[record]]
molecule = "Fc1ccc(NC(=S)N2CCc3[nH]c4ccccc4c3C2)cc1"
label = "NO"


Dear colleague, could you confirm whether Clc1ccc(-c2nc(C3CCCCC3)no2)cc1 has solubility kinetic at or above 8 µg/mL?
NO
